Target: Prothrombin (Homo sapiens)
Assay: Inhibition of thrombin at 45.5 uM
Active and inactive are the calls of the source. The calls are words filed in the database; no cut-off is given here.
MEASURED QUANTITY: inhibition

CC(=O)O[C@@H]1CC[C@@H]2C[C@H](C(N)=O)N(C(=O)[C@@H](Cc3ccc(O)cc3)NC(=O)[C@@H](O)Cc3ccc(O)cc3)[C@@H]2C1 | inactive
CC(C)C[C@@H](NC(=O)[C@H](O)Cc1ccc(O)cc1)C(=O)N[C@@H](Cc1ccccc1)C(=O)NCCCCNC(=N)N | inactive
CC(=O)O[C@H](Cc1ccc(O)cc1)C(=O)N[C@H](Cc1ccccc1)C(=O)N1[C@@H](C(=O)NCCCCNC(=N)N)C[C@H]2CC[C@@H](O)C[C@H]21 | < 50%

* * *

Test: Inhibition of elastase at 45.5 uM
Activity calls are given as the source filed them. The calls are words filed in the database; no cut-off is given here.
MEASURED QUANTITY: inhibition

CC(=O)O[C@H](Cc1ccc(O)cc1)C(=O)N[C@H](Cc1ccccc1)C(=O)N1[C@@H](C(=O)NCCCCNC(=N)N)C[C@H]2CC[C@@H](O)C[C@H]21 | inactive
CC[C@@H](C)[C@H]1C(=O)N(C)[C@@H](Cc2ccccc2)C(=O)N[C@@H](C(C)C)C(=O)O[C@H](C)[C@H](NC(=O)[C@H](CCC(N)=O)NC(=O)[C@H](O)Cc2ccc(O)cc2)C(=O)N[C@@H](Cc2ccc(O)cc2)C(=O)N[C@H]2CC[C@@H](O)N1C2=O (relative stereo) | inactive
N=C(N)NCCCCNC(=O)[C@H]1C[C@H]2CC[C@@H](O)C[C@H]2N1C(=O)[C@@H](Cc1ccccc1)NC(=O)[C@H](O)Cc1ccc(O)cc1 | inactive

* * *

Assay: Inhibition of elastase at 45.5 uM
Calls of active or inactive are those of the source. The calls are words filed in the database; no cut-off is given here.
MEASURED QUANTITY: inhibition

CC(=O)O[C@@H]1CC[C@@H]2C[C@H](C(N)=O)N(C(=O)[C@@H](Cc3ccc(O)cc3)NC(=O)[C@@H](O)Cc3ccc(O)cc3)[C@@H]2C1 | inactive
CC(C)C[C@@H](NC(=O)[C@H](O)Cc1ccc(O)cc1)C(=O)N[C@@H](Cc1ccccc1)C(=O)NCCCCNC(=N)N | inactive
N=C(N)NCCCCNC(=O)[C@H]1C[C@H]2CC[C@@H](O)C[C@H]2N1C(=O)[C@@H](Cc1ccccc1)NC(=O)[C@@H](O)Cc1ccc(O)cc1 | inactive

* * *

Target: Prothrombin (Homo sapiens)
Assay: Inhibition of thrombin at 45.5 uM
Activity calls are given as the source filed them. The calls are words filed in the database; no cut-off is given here.
MEASURED QUANTITY: inhibition

CC(OC(=O)C(CCCNC(=N)N)[N+](C)(C)C)C(OS(=O)(=O)[O-])c1ccc(OS(=O)(=O)O)c(COS(=O)(=O)O)c1 (stereo not drawn) | inactive
CC[C@@H](C)[C@H]1C(=O)N(C)[C@@H](Cc2ccccc2)C(=O)N[C@@H](C(C)C)C(=O)O[C@H](C)[C@H](NC(=O)[C@H](CCC(N)=O)NC(=O)[C@H](O)Cc2ccc(O)cc2)C(=O)N[C@@H](Cc2ccc(O)cc2)C(=O)N[C@H]2CC[C@@H](O)N1C2=O (relative stereo) | inactive
N=C(N)NCCCCNC(=O)[C@H]1C[C@H]2CC[C@@H](O)C[C@H]2N1C(=O)[C@@H](Cc1ccccc1)NC(=O)[C@H](O)Cc1ccc(O)cc1 | < 50%

Data origin, for the record: ChEMBL document CHEMBL2010676
